Parameter inhibition at 10 µM: see the listing below.
TARGET UNDER TEST: factor VII/VIIa (Homo sapiens, UniProt P08709)
Construct: from tissue
Sequence (P08709 61-466): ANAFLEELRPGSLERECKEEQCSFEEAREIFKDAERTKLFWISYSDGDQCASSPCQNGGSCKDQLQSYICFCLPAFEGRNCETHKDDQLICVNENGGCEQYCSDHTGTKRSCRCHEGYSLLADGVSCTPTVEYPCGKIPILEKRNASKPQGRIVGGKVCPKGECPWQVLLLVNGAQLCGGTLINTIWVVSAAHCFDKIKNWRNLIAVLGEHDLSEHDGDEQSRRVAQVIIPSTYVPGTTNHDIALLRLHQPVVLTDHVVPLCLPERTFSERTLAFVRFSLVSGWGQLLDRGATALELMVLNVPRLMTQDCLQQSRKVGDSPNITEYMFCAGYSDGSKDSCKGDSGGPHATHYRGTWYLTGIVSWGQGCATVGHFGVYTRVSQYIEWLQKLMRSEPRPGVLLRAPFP
METHOD DESCRIPTION: Inhibition of huTF-initiated coagulation by polypeptide analogs of huTFh
Format: biochemical
ASSAY CONTEXT: phospholipidated peptides; 10 μM; read-out: Inhibition (Percent Inhibition of huTF-initiated coagulation)
The answer is to be given in %; state only the numeric part.

SUBSTANCE: H-SGTTNTVAAYNLTWKSTNFKTILEWEPKPV-OH [p1-30]
OBSERVED VALUE: 81
--
SUBSTANCE: H-VFGKDLIYTLYYWKSSSSGKKT-OH [p146-167]
OBSERVED VALUE: 80
--
SUBSTANCE: H-YENSPEFTPYLETNLGQPTIQSFEQVGTKV-OH [p94-123]
OBSERVED VALUE: 93.7

## Input What value of inhibition at 10 µM has been reported for the following substance? H-SSSGKKTAKTNTNEFLIDVDKGENYCFSV-OH [p161-189]
## Output 94

## Input Which measured inhibition at 10 µM value corresponds to H-TKVNVTVEDERTLVRRNNTFLSLRDVFGKDLIYTL-OH [p121-155] ?
## Output 55
